# target.or.test.system: Muscarinic acetylcholine receptor
# assay.summary: Antagonist activity against Muscarinic acetylcholine receptor of guinea pig ileum
# Assay type: functional, tissue-based, Cavia porcellus
outcome.measure: pA2

{"compound": "C[N+](C)(C)C[C@@H]1C[S@@+]([O-])C(C2CCCCC2)(C2CCCCC2)O1.[I-] (racemic)", "obs.value": 6.24}
{"compound": "C[N+](C)(C)C[C@@H]1CSC(C2CCCCC2)(C2CCCCC2)O1.[I-] (stereo in doubt; (+)-2)", "obs.value": 6.98}
{"compound": "C[N+](C)(C)C[C@@H]1C[S@+]([O-])C(C2CCCCC2)(C2CCCCC2)O1.[I-] (racemic)", "obs.value": 6.4}
{"compound": "C[N+](C)(C)C[C@@H]1CSC(C2CCCCC2)(C2CCCCC2)O1.[I-] (racemic)", "obs.value": 6.95}
{"compound": "C[N+](C)(C)C[C@@H]1C[S@@+]([O-])C(C2CCCCC2)(C2CCCCC2)O1.[I-] (stereo in doubt; (+)-4)", "obs.value": 5.81}
{"compound": "C[N+](C)(C)C[C@@H]1C[S@+]([O-])C(C2CCCCC2)(C2CCCCC2)O1.[I-] (stereo in doubt; (-)-6)", "obs.value": 5.92}
{"compound": "C[N+](C)(C)C[C@@H]1C[S@@+]([O-])C(C2CCCCC2)(C2CCCCC2)O1.[I-] (stereo in doubt; (-)-4)", "obs.value": 6.69}
{"compound": "C[N+](C)(C)C[C@@H]1C[S@+]([O-])C(C2CCCCC2)(C2CCCCC2)O1.[I-] (stereo in doubt; (+)-6)", "obs.value": 6.32}
{"compound": "C[N+](C)(C)C[C@@H]1CSC(C2CCCCC2)(C2CCCCC2)O1.[I-] (stereo in doubt; (-)-2)", "obs.value": 6.92}
